MEASUREMENT_PROTOCOL: Cytotoxicity against human M189 cells assessed as reduction in cell viability measured after 72 hrs by Celltiter-Glo luminescent assay
Type: functional, cell-based
OBSERVED_PROPERTY: IC50

CSc1nc(Nc2cccc(Cl)c2)c2cnn(CCc3ccccc3)c2n1    0.09 to 9.01 µM

From: ChEMBL document CHEMBL4613312
